The measurements presented in this section are drawn from patent US20230000865A1.

pEC50 values, listed per item
Target: human PXR (Homo sapiens)
Sequence (O75469 whole entry): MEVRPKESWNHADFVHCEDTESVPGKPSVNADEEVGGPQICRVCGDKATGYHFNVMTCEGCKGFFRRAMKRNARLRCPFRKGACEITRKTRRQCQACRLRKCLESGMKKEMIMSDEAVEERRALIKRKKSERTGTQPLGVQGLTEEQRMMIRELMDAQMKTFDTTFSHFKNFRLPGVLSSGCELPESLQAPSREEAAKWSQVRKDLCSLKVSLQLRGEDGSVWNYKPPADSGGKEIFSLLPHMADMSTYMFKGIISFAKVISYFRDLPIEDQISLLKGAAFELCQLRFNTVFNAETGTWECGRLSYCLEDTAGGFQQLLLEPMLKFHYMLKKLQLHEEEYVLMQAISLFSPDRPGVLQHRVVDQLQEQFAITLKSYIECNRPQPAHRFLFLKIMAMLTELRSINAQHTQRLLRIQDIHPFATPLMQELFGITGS
Experiment: Activation of human PXR
pEC50: −log10 of the molar value.

- line-notation: "CCCNS(=O)(=O)Nc1ncnc(OCCOc2ncc(Br)cn2)c1-c1ccc(Br)cc1"
  measurement-type: "pEC50"
  experimental-result: "5.92 to 5.96"

Below: the item to evaluate.
Measured pEC50, NS(=O)(=O)Nc1ncnc(OCCOc2ncc(Br)cn2)c1-c1ccc(Br)cc1 : 5.06 to 5.14
